The values you see were collected from patent US11753407B2.

Structures can show the parent of a compound that is named as a salt.
endpoint.name: melting point

Answered cases to consult:
What does the data say about its melting point? Entry: CCOc1cc(-c2cc(=O)n3cc(N4CCNCC4)ccc3n2)ccc1OC
194 to 196 °C

Check Cc1cn2cc(-c3cc(=O)n4cc(C5=CCNCC5)ncc4n3)cc2c(C)n1.Cl.Cl too.
> 300 °C

Check Cc1cn2nc(-c3cc(=O)n4cc(C5CCN(C6COC6)CC5)ccc4n3)cc2c(C)n1 too.
150 to 152 °C

Others:
What does the data say about its melting point? Entry: CCCc1nc(C)cn2nc(-c3cc(=O)n4cc(N5CCN[C@H](C)C5)ccc4n3)cc12
195 to 197 °C

Check CSc1ccc(-c2cc(=O)n3cc(N4CCNCC4)ccc3n2)cc1F too.
174 to 176 °C

Check O=c1cc(-c2cc(F)c(O)c(F)c2)nc2ccc(N3CCNCC3)cn12 (as salt: hydrochloride) too.
290 °C (dec.)
